Values were extracted from patent US20080032921A1.

# testedOn: HLA-DR DRB1*1302 (human)
# procedureSummary: competition with 125I-labelled peptide, purified HLA
Attribute: pIC50
# pIC50 is unitless: minus log10 of the molar concentration; print number only

SLMLQIGNMISIWVSHS (modifications not checked) [Flu.NA.21] :: 8.00
LEGFSAESRKLLLVV (modifications not checked) [Flu.PA.658] :: 5.64
TKKMVTQRTIGKKKQ (modifications not checked) [Flu.PB1.199] :: 5.21

// next entry
## Task Entry under review: EECLINDPWVLLNAS (modifications not checked) [Flu.PA.694] . Reported pIC50?
## Result 6.61
